- tgt: mutant EGFR (T790M, L858R) (Homo sapiens, UniProt P00533, L858R/T790M)
- Construct: The EGFR constructs span amino acids R669 to V1011 of the EGFR protein; made in house; host or cells: E. coli derived from BL21 (T7 phage) for most assays; remaining kinases in HEK-293 cells
- Sequence (P00533 669-1011 T790M/L858R): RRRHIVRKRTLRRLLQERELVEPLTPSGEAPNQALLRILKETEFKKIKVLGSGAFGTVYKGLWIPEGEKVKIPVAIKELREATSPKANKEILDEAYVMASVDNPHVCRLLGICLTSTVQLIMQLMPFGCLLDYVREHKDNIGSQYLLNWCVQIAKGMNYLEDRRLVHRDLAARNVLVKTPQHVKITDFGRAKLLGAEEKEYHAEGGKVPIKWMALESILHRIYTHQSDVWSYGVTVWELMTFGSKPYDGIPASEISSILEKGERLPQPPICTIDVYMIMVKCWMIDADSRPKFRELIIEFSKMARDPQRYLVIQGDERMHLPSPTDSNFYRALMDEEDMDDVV
- assay.comment: In vitro kinase assay (phage/DNA-tagged kinase competition binding, qPCR readout), mutant EGFR
- applied.conditions: ratio of Kd EGFR (WT) to Kd EGFR (L858R, T790M) double mutant

# smi, tgt, Binding Affinity ratio of WT/DM
records = [
    ("C=CC(=O)N1C[C@H](COc2nc(Nc3cnn(CCCCCNC(=O)CN4CCN5CCN6CCN(CC4)CC(=O)[O][Lu]([O]C(=O)C5)[O]C(=O)C6)c3)nc3[nH]cc(Cl)c23)[C@@H](OC)C1", "mutant EGFR (T790M, L858R) (Homo sapiens, UniProt P00533, L858R/T790M)", "C (100 < C ≤ 1000)"),
    ("C=CC(=O)N[C@@H]1CN(c2nc(Nc3cn(CCCCCNC(=O)CN4CCN(CC(=O)O)CCN(CC(=O)O)CCN(CC(=O)O)CC4)nc3OC)c3ncn(C)c3n2)C[C@H]1F", "mutant EGFR (T790M, L858R) (Homo sapiens, UniProt P00533, L858R/T790M)", "A (4 < A ≤ 25)"),
    ("C=CC(=O)N[C@@H]1CN(c2nc(Nc3cn(CCCCCNC(=O)CN4CCN5CCN6CCN(CC4)CC(=O)[O][Lu]([O]C(=O)C5)[O]C(=O)C6)nc3CC)c3ncn(C(C)(C)C)c3n2)C[C@H]1F", "mutant EGFR (T790M, L858R) (Homo sapiens, UniProt P00533, L858R/T790M)", "C (100 < C ≤ 1000)"),
    ("C=CC(=O)N[C@@H]1CN(c2nc(Nc3cn(CCCNC(=O)CN4CCN5CCN6CCN(CC4)CC(=O)[O][Lu]([O]C(=O)C5)[O]C(=O)C6)nc3OC)c3ncn(C)c3n2)C[C@H]1F", "mutant EGFR (T790M, L858R) (Homo sapiens, UniProt P00533, L858R/T790M)", "A (4 < A ≤ 25)"),
]

---

- tgt: mutant EGFR (T790M, L858R) (Homo sapiens, UniProt P00533, L858R/T790M)
- Construct: The EGFR constructs span amino acids R669 to V1011 of the EGFR protein; remaining kinases in HEK-293 cells
- assay.comment: In vitro kinase assay (phage/DNA-tagged kinase competition binding, qPCR readout), mutant EGFR
- applied.conditions: EGFR construct R669 to V1011; 11-point 3-fold dilution series; 1 hour at room temperature
measured.property: Kd

Kindly note: mutant EGFR (T790M, L858R) (Homo sapiens, UniProt P00533, L858R/T790M), C=CC(=O)N[C@@H]1CN(c2nc(Nc3cn(CCCCCNC(=O)CN4CCN(CC(=O)O)CCN(CC(=O)O)CCN(CC(=O)O)CC4)nc3OC)c3ncn(C)c3n2)C[C@H]1F [Compound 002] , Kd value reported: < 1 nM
